Reported pEC50 is given for each of the following molecules.
# experimental.target: Cell division control protein 42 homolog (Homo sapiens)
# Sequence (P60953 whole entry): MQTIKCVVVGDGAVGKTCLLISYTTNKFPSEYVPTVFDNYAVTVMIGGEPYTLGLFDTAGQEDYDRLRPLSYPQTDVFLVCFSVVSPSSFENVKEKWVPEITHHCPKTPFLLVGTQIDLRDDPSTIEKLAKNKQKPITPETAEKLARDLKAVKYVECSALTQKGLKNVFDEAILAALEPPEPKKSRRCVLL
# assay.overview: inhibition of fluorescent GTP binding to Cdc42 wt – biochemical, bead-based multiplex flow cytometry, additional SAR set, SAR follow-up (AID 2022)
# condition.parameters: inactive by the depositor's call
pEC50: −log10 of the molar value.
metric: pEC50

{"columns": ["molecule", "reported.value"],
 "data": [
  ["N#Cc1c(-c2ccc(Cl)cc2)c(C(=O)c2ccccc2)n(S(=O)(=O)c2ccc([N+](=O)[O-])cc2)c1N", 5.14],
  ["COc1ccc(-c2c(C#N)c(N)n(S(C)(=O)=O)c2C(=O)c2ccccc2)cc1Br", 4.95],
  ["CC(C)Cc1ccc([C@H](C)C(=O)O)cc1 [(S)-2-(4-Isobutyl-phenyl)-propionic acid]", 4.78]
]}
